TARGET_OF_ASSAY: UniProt:Q92918
PROTOCOL_TEXT: FRET Assay for HPK1 (MAP4K1): one step binding assay, displacement of labeled tracer
REPORTED_CONDITIONS: 1 μM compound; FRET ratio 665/620, percent of control

{"STRUCTURE_STRING": "CC(=O)N1CCC(n2ccc(N/C(C)=C3\\C(=O)Nc4cnc(-c5cnccc5C)cc43)n2)CC1", "inhibition at 1 µM": "79.4%"}
{"STRUCTURE_STRING": "C/C(Nc1ccn(C)n1)=C1/C(=O)Nc2cnc(-c3cncc(N)c3C)cc21", "inhibition at 1 µM": "79.8%"}
{"STRUCTURE_STRING": "C/C(Nc1cc2n(n1)CCOC2)=C1/C(=O)Nc2cnc(-c3c(C)cccc3F)cc21", "inhibition at 1 µM": "62.1%"}
{"STRUCTURE_STRING": "C/C(Nc1ccn(C)n1)=C1/C(=O)Nc2cnc(-c3cncc(F)c3C)cc21", "inhibition at 1 µM": "69%"}

* * *

Below, each entry is listed with its recorded inhibition at 1 µM.
TARGET_OF_ASSAY: HPK1 (MAP4K1) (Homo sapiens)
Sequence (Q92918 whole entry): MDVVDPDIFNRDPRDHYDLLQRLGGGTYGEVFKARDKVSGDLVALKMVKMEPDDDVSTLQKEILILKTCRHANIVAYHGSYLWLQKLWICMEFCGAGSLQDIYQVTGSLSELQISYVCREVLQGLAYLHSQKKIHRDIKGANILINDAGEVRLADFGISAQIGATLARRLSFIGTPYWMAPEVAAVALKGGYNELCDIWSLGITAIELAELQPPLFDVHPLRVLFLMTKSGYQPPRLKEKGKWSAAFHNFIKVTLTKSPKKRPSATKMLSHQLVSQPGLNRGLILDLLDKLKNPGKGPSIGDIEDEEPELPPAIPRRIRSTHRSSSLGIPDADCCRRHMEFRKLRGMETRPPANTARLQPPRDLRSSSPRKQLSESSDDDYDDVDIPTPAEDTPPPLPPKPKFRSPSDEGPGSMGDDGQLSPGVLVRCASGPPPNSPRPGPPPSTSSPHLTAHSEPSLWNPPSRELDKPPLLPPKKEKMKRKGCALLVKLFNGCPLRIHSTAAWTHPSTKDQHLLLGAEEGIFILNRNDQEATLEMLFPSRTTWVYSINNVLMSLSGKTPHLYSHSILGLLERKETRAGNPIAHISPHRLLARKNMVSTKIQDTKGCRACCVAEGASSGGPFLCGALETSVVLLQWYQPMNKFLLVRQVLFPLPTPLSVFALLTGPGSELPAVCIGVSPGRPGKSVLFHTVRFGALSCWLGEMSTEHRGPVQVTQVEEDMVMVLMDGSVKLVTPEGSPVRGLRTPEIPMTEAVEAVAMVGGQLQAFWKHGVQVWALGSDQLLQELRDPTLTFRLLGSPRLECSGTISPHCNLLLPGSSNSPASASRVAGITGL
PROTOCOL_TEXT: FRET Assay for HPK1 (MAP4K1): one step binding assay, displacement of labeled tracer
REPORTED_CONDITIONS: 1 μM compound; FRET ratio 665/620, percent of control
MEASURED_METRIC: inhibition at 1 µM (%)

{"COMPOUND": "COc1cccc(F)c1-c1ccc2c(c1)/C(=C(\\C)Nc1ccn(C)n1)C(=O)N2", "TARGET_OF_ASSAY": "HPK1 (MAP4K1) (Homo sapiens)", "REPORTED": 89.8}
{"COMPOUND": "CC/C(Nc1ccn(C(C)(C)C#N)n1)=C1/C(=O)Nc2cnc(-c3cnccc3C)cc21", "TARGET_OF_ASSAY": "HPK1 (MAP4K1) (Homo sapiens)", "REPORTED": 77}
{"COMPOUND": "C/C(Nc1ccc(N2CCN(C3CC3)CC2)nc1)=C1/C(=O)Nc2cnc(-c3cnccc3C)cc21", "TARGET_OF_ASSAY": "HPK1 (MAP4K1) (Homo sapiens)", "REPORTED": 68.6}
{"COMPOUND": "CCS(=O)(=O)n1cc(N/C(C)=C2\\C(=O)Nc3cnc(-c4cnccc4C)cc32)cn1", "TARGET_OF_ASSAY": "HPK1 (MAP4K1) (Homo sapiens)", "REPORTED": 75.1}
{"COMPOUND": "C/C(Nc1cnn(C)c1)=C1/C(=O)Nc2cnc(-c3c(F)cccc3OC(F)F)cc21", "TARGET_OF_ASSAY": "HPK1 (MAP4K1) (Homo sapiens)", "REPORTED": 88}
{"COMPOUND": "C/C(Nc1cnn(C)c1)=C1/C(=O)Nc2cnc(-c3ccc(F)cc3F)cc21", "TARGET_OF_ASSAY": "HPK1 (MAP4K1) (Homo sapiens)", "REPORTED": 70.9}
{"COMPOUND": "COc1cccc(F)c1-c1cc2c(cn1)NC(=O)/C2=C(/C)Nc1ccn(C)n1", "TARGET_OF_ASSAY": "HPK1 (MAP4K1) (Homo sapiens)", "REPORTED": 84.8}
{"COMPOUND": "COc1cccc(F)c1-c1cc2c(cn1)NC(=O)/C2=C(/C)Nc1ccc(N2CCN(C)CC2)cc1", "TARGET_OF_ASSAY": "HPK1 (MAP4K1) (Homo sapiens)", "REPORTED": 86.3}
{"COMPOUND": "COc1cccc(F)c1-c1cc2c(cc1C)NC(=O)/C2=C(/C)Nc1cnn(C)c1", "TARGET_OF_ASSAY": "HPK1 (MAP4K1) (Homo sapiens)", "REPORTED": 83.1}
{"COMPOUND": "C/C(Nc1cn(C)nc1C)=C1/C(=O)Nc2cnc(-c3cnccc3C)cc21", "TARGET_OF_ASSAY": "HPK1 (MAP4K1) (Homo sapiens)", "REPORTED": 78.5}
{"COMPOUND": "C/C(Nc1cc(C)n(C(F)F)n1)=C1/C(=O)Nc2cnc(-c3cc(F)ccc3C)cc21", "TARGET_OF_ASSAY": "HPK1 (MAP4K1) (Homo sapiens)", "REPORTED": 67.3}
{"COMPOUND": "C/C(Nc1cc2n(n1)CC(=O)N(C(C)C)C2)=C1/C(=O)Nc2cnc(-c3c(C)cccc3F)cc21", "TARGET_OF_ASSAY": "HPK1 (MAP4K1) (Homo sapiens)", "REPORTED": 72.4}
{"COMPOUND": "C/C(Nc1cc2n(n1)CC(=O)N(C(C)C)C2)=C1/C(=O)Nc2cnc(-c3cnccc3C)cc21", "TARGET_OF_ASSAY": "HPK1 (MAP4K1) (Homo sapiens)", "REPORTED": 78.7}
{"COMPOUND": "COc1cccc(F)c1-c1cc2c(cn1)NC(=O)/C2=C(/C)Nc1cnn(C(C)C#N)c1 (stereo not shown)", "TARGET_OF_ASSAY": "HPK1 (MAP4K1) (Homo sapiens)", "REPORTED": 86.9}
{"COMPOUND": "C/C(Nc1ccn(C[C@H](C)O)n1)=C1/C(=O)Nc2cnc(-c3cnccc3C)cc21", "TARGET_OF_ASSAY": "HPK1 (MAP4K1) (Homo sapiens)", "REPORTED": 79.9}
{"COMPOUND": "CCOc1cccc(F)c1-c1cc2c(cn1)NC(=O)/C2=C(/C)Nc1ccc(N2CCOCC2)nc1", "TARGET_OF_ASSAY": "HPK1 (MAP4K1) (Homo sapiens)", "REPORTED": 84.4}
